Test system: ACHN
test_summary: Growth inhibition of human ACHN cells at 10 uM after 48 hrs by sulforhodamine B assay
Format: functional
condition_notes: read-out: GI
Each entry gets N if its inhibition of growth at 10 µM stays under 20%, and Y if its inhibition of growth at 10 µM is 20% or above.

smiles_notation | cat
COc1ccccc1NS(=O)(=O)c1ccc2nc(-c3ccccc3)c(-c3ccccc3)nc2c1 | N
NC(=S)NNS(=O)(=O)c1ccc2nc(-c3ccccc3)c(-c3ccccc3)nc2c1 | N

Proceed to the following item.
Check if inhibition of growth at 10 µM >= 20% (inclusive). Item: `O=S(=O)(Nc1cccc2ccccc12)c1ccc2nc(-c3ccccc3)c(-c3ccccc3)nc2c1`
Y

====

Tested on: M14
test_summary: Growth inhibition of human M14 cells at 10 uM after 48 hrs by sulforhodamine B assay
Type: functional
condition_notes: M14, 48 h, read-out: GI
observable: inhibition of growth at 10 µM (%)
Please state the figure in %; there is no need to write the unit.

smiles_notation | inhibition of growth at 10 µM (%)
O=C(NS(=O)(=O)c1ccc2nc(-c3ccccc3)c(-c3ccccc3)nc2c1)c1ccccc1 | 2.45
COc1ccccc1NS(=O)(=O)c1ccc2nc(-c3ccccc3)c(-c3ccccc3)nc2c1 | 26
O=S(=O)(Nc1ccccn1)c1ccc2nc(-c3ccccc3)c(-c3ccccc3)nc2c1 | 62.8
O=S(=O)(Nc1ccc(Cl)cc1)c1ccc2nc(-c3ccccc3)c(-c3ccccc3)nc2c1 | 31
CC(=S)NS(=O)(=O)c1ccc2nc(-c3ccccc3)c(-c3ccccc3)nc2c1 | 2.85
NC(=S)NNS(=O)(=O)c1ccc2nc(-c3ccccc3)c(-c3ccccc3)nc2c1 | 4.23

Hello, I am looking for reported inhibition of growth at 10 µM with M14 for `O=S(=O)(Nc1cccc2ccccc12)c1ccc2nc(-c3ccccc3)c(-c3ccccc3)nc2c1` . Could you help?
2.23

====

Test system: NCI-H226
test_summary: Growth inhibition of human NCI-H226 cells at 10 uM after 48 hrs by sulforhodamine B assay
Format: functional
condition_notes: NCI-H226, 48 h, read-out: GI
Classify by measured inhibition of growth at 10 µM: Y if it is equal to or exceeds 50%, N if it is smaller.

smiles_notation | cat
CC(=S)NS(=O)(=O)c1ccc2nc(-c3ccccc3)c(-c3ccccc3)nc2c1 | Y
O=C(NS(=O)(=O)c1ccc2nc(-c3ccccc3)c(-c3ccccc3)nc2c1)c1ccccc1 | Y
O=S(=O)(Nc1ccccn1)c1ccc2nc(-c3ccccc3)c(-c3ccccc3)nc2c1 | N
O=S(=O)(Nc1cccc2ccccc12)c1ccc2nc(-c3ccccc3)c(-c3ccccc3)nc2c1 | N
NC(=S)NNS(=O)(=O)c1ccc2nc(-c3ccccc3)c(-c3ccccc3)nc2c1 | Y

inhibition of growth at 10 µM >= 50% for `COc1ccccc1NS(=O)(=O)c1ccc2nc(-c3ccccc3)c(-c3ccccc3)nc2c1` ?
Y

Again, but for `O=S(=O)(Nc1ccc(Cl)cc1)c1ccc2nc(-c3ccccc3)c(-c3ccccc3)nc2c1`
N

====

Test system: IGROV-1
test_summary: Growth inhibition of human IGROV1 cells at 10 uM after 48 hrs by sulforhodamine B assay
Format: functional
condition_notes: IGROV-1, 48 h, read-out: GI
observable: inhibition of growth at 10 µM (%)
I only need the number, in %, no unit after it.

Sample records with inhibition of growth at 10 µM:
smiles_notation | unit_abbrev | inhibition of growth at 10 µM
COc1ccccc1NS(=O)(=O)c1ccc2nc(-c3ccccc3)c(-c3ccccc3)nc2c1 | % | 11.8
NC(=S)NNS(=O)(=O)c1ccc2nc(-c3ccccc3)c(-c3ccccc3)nc2c1 | % | 8.83
O=S(=O)(Nc1ccccn1)c1ccc2nc(-c3ccccc3)c(-c3ccccc3)nc2c1 | % | 31.8
O=S(=O)(Nc1cccc2ccccc12)c1ccc2nc(-c3ccccc3)c(-c3ccccc3)nc2c1 | % | 1.78

Could you share which inhibition of growth at 10 µM value was measured for `CC(=S)NS(=O)(=O)c1ccc2nc(-c3ccccc3)c(-c3ccccc3)nc2c1` ?
14.8

Try this compound next: `O=S(=O)(Nc1ccc(Cl)cc1)c1ccc2nc(-c3ccccc3)c(-c3ccccc3)nc2c1`
20.8

For `O=C(NS(=O)(=O)c1ccc2nc(-c3ccccc3)c(-c3ccccc3)nc2c1)c1ccccc1` then?
16.5

The measured values listed here are drawn from ChEMBL document CHEMBL2407075.
